Listed here: items and their measured GI50.
- Test system: A498
- Test Method Notes: NCI tumour cell line growth inhibition, 48 h
The source made the active and inactive calls. No stated cut-off is given here; in the data, active = GI50 up to about 1.1 µM and inactive = higher.

// solved cases for GI50 follow
Molecule	GI50
CC(=O)Nn1c(Cc2ccc(Cl)cc2)nn(C)c1=O	> 100 µM (inactive)
O=C(N/N=C1/C(=O)N(c2ccc(Cl)cc2Cl)C(=O)C(=O)C1c1nc2ccccc2o1)c1ccccc1O (configuration not stated)	31.3 µM (inactive)
CSc1[nH]nc(N)c1C(=O)Nc1ccc(C)cc1	18.7 µM (inactive)
COc1ccc2nc3cc(Cl)ccc3c(Sc3ccc(N)cc3)c2c1	29.1 µM (inactive)

Asked: Field request: GI50 | item: O=C1Nc2ccccc2Cn2c1cc1oc(-c3ccccc3)cc12
Given back: 36.5 µM (inactive)

Asked: Field request: GI50 | item: COc1ccc(/C(C#N)=C/c2ccc(OC)c(OC)c2)cc1
Given back: > 100 µM (inactive)

Asked: Field request: GI50 | item: CC(=O)CC1(OC(=O)C2C(C=C(C)C)C2(C)C)C(=O)Nc2ccccc21 (configuration not stated)
Given back: > 100 µM (inactive)

Asked: Field request: GI50 | item: CC(C)(C)OC(=O)NCCC1CNc2ccccc21 (configuration not stated)
Given back: > 100 µM (inactive)

Asked: Field request: GI50 | item: CCC(=O)Nc1ccc(NS(=O)(=O)c2ccc(Cl)cc2)cc1
Given back: > 100 µM (inactive)

Asked: Field request: GI50 | item: CC(C)(C)NC1C2CCC(C)(C1O)C2(C)C (configuration not stated)
Given back: 2.35 µM (inactive)

Asked: Field request: GI50 | item: O=C(O)C#CCO
Given back: > 100 µM (inactive)

Asked: Field request: GI50 | item: CS/C(=N/S(=O)(=O)c1ccc(Cl)cc1)NCCCN/C(=N\S(=O)(=O)c1ccc(Cl)cc1)SC
Given back: 8.43 µM (inactive)

Asked: Field request: GI50 | item: C=C1C(=O)O[C@H]2[C@@H](O)[C@H](C)CCC[C@]3(C)O[C@H]3CC[C@@]3(C)O[C@@H]3C[C@@H]12
Given back: 7.33 µM (inactive)

* * *

- Tested on: HCT-116
- Test Method Notes: NCI tumour cell line growth inhibition, 48 h
The source made the active and inactive calls. Rule as the data show it: active = GI50 up to about 1.1 µM and inactive = higher.
Measured Property: GI50

Compound	GI50
CC1(C)CC[C@]2(C(=O)O)CCC3(C)C(=CCC4[C@@]5(C)CC[C@H](OC6OCC(O)C(O)C6OC6OC(CO)C(O)C(O)C6O)C(C)(C)C5CC[C@]43C)C2C1 (stereo partly specified)	2.81 µM (inactive)
CCOc1ccc(N2C(=O)C3c4[nH]c5ccccc5c4C4CCC(C(C)(C)C)CC4C3C2=O)cc1 (stereo unspecified)	49.2 µM (inactive)
COc1ccc(CCCCl)c(C2=NCCc3cc(OC)c(OC)cc32)c1	33 µM (inactive)
NC(CSS(=O)(=O)c1ccccc1)C(=O)O (stereo unspecified)	> 10 µM (inactive)
N#CCc1n[nH]c2nc(SCc3ccccc3)nc(N3CCCCC3)c12	17.7 µM (inactive)
Cc1ccc2[nH]c3c(c(=O)n(C)c(=O)n3C)c2c1	> 100 µM (inactive)

Asked: Field request: GI50 | item: O=C(O)CCC1(C(=O)O)CCC(=O)c2ccccc21 (stereo unspecified)
Given back: > 100 µM (inactive)

Asked: Field request: GI50 | item: CC(C)(C)COC(=O)C(C)(C)NC(=O)C(CC(=O)OCc1ccccc1)NC(=O)OCc1ccccc1 (stereo unspecified)
Given back: 32.7 µM (inactive)

Asked: Field request: GI50 | item: Cc1ccc(-c2c(C#N)c(-c3ccccc3)n(NS(=O)(=O)c3ccccc3)c(=O)c2C#N)cc1
Given back: 74.5 µM (inactive)

Asked: Field request: GI50 | item: COc1cc2c(cc1Cl)[n+]([O-])c(C#N)c(N1CCN(c3ccc([N+](=O)[O-])cc3)CC1)[n+]2[O-]
Given back: 24 µM (inactive)

Asked: Field request: GI50 | item: O=[N+]([O-])/C(C(Cl)=C(Cl)Cl)=C1\NCCO1
Given back: 87.5 µM (inactive)

* * *

- Tested on: SNB-19
- Test Method Notes: NCI tumour cell line growth inhibition, 48 h
Calls of active or inactive are those of the source. No stated cut-off is given here; in the data, active = GI50 up to about 1.1 µM and inactive = higher.
Measured Property: GI50

// solved cases for GI50 follow
Compound	GI50
Cc1oncc1/N=C1\C=C(O)C(=O)c2ccccc21	16.3 µM (inactive)
CC(=O)OCC1C(C(C)OC(C)=O)CCC2C1CCC1(C)C(OC(C)=O)CCC21 (stereo unspecified)	20.4 µM (inactive)
C[Si](C)(C)/C=C/CN1C(=O)CCC1=O	> 100 µM (inactive)
c1ccc(-c2cs[s+]c2)cc1	> 100 µM (inactive)
CC(C)(C)NC1C2CCC(C)(C1O)C2(C)C (stereo unspecified)	> 100 µM (inactive)

Turning now to a further compound:
Asked: Field request: GI50 | item: O=c1oc2ccc3ccccc3c2cc1-c1cn2ccsc2n1
Given back: > 100 µM (inactive)

* * *

- Tested on: SR
- Test Method Notes: NCI tumour cell line growth inhibition, 48 h
Structures can show the parent of a compound that is named as a salt. The source made the active and inactive calls. No stated cut-off is given here; in the data, active = GI50 up to about 1.1 µM and inactive = higher.
Entry note: the call must match one of active, inactive

Compound	Label Class
O=c1c2cc3c(cc2c2cccc4c2n1CCC4)OCO3	inactive
O=C1/C(=C/c2ccccc2)CN(C(=O)Oc2ccc([N+](=O)[O-])cc2)C/C1=C\c1ccccc1	inactive
CC/C(=C(\c1ccccc1)c1ccc(OCCN(C)C)cc1)c1ccccc1 [TAMOXIFEN CITRATE]	inactive
COc1ccc2c(c1)c1ccc3c(c1n2C)C(=O)C=CC3=O	active
C/C(=C\CO)CC/C=C(\C)CNc1ccccc1	inactive

Asked: Which outcome was entered for the compound O=C1C=C/C(=N\N=C(c2ccccc2)c2ccccc2)O1 in this test?
Given back: inactive

Asked: Which outcome was entered for the compound CS/C(=N/S(=O)(=O)c1ccc(Cl)cc1)NCCCN/C(=N\S(=O)(=O)c1ccc(Cl)cc1)SC in this test?
Given back: inactive

Asked: Which outcome was entered for the compound COc1cccc(C2c3cc4c(cc3OC(O)(CO)C2C(=O)O)OCO4)c1.COc1cccc(C2c3cc4c(cc3OC3(O)COC(=O)C23)OCO4)c1 (stereo not given) in this test?
Given back: inactive

Asked: Which outcome was entered for the compound Cc1cc(S(=O)(=O)Nc2nnc3c(C(F)(F)F)cc(Cl)cn23)c(S)cc1Cl in this test?
Given back: inactive

Asked: Which outcome was entered for the compound C=CCC1(C)CCCCC1(O)C[S+]([O-])c1ccccc1 (stereo not given) in this test?
Given back: inactive

* * *

- Test system: NCI-H460
- Test Method Notes: NCI tumour cell line growth inhibition, 48 h
Active and inactive are the calls of the source. Rule as the data show it: active = GI50 up to about 1.1 µM and inactive = higher.
Measured Property: GI50

// solved cases for GI50 follow
Molecule	Endpoint Result
CCOC(=O)c1c(N2CCCC2)[nH]c(=O)c(C(c2ccc(OC)cc2)c2c(O)c(C(=O)OCC)c(N3CCCC3)[nH]c2=O)c1O	> 100 µM (inactive)
BC(=O)NC(CC(C)C)C(=O)NCC(=O)NC1c2ccsc2C(=O)C1O.CN(C)C (stereo not given)	31.6 µM (inactive)
Cc1ccc(Nc2nc(-c3ccc(-c4ccc([N+](=O)[O-])cc4)o3)cs2)cc1	44 µM (inactive)
CC(=O)OCCn1c(Cc2ccc(C)cc2)nn(C(C)=O)c1=O	> 100 µM (inactive)

Turning now to a further molecule:
Asked: Field request: GI50 | item: CC(C)CC(=O)NC(NC(C)C)(C(F)(F)F)C(F)(F)F
Given back: > 100 µM (inactive)

* * *

- Test system: IGROV-1
- Test Method Notes: NCI tumour cell line growth inhibition, 48 h
Active and inactive are the calls of the source. No stated cut-off is given here; in the data, active = GI50 up to about 1.1 µM and inactive = higher.
Entry note: the call must match one of yes (1) for active, no (0) for inactive

Consider the following illustrative entries.
Compound	Assayed System	Label Class
O=C(N1CCOCC1)C1(c2ccccc2)CCNCC1	IGROV-1	no (0)
COc1nc2c(c(=O)n1C)N=C(c1ccccc1)[C@H](C(CC(=O)c1ccccc1)c1ccccc1)C(c1ccccc1)N2 (stereo not given in full)	IGROV-1	no (0)
NCCSCC(N)C(=O)O (stereo not given)	IGROV-1	no (0)
COc1cc2c(cc1OC)C(=O)N(c1ccc(O)cc1)C2	IGROV-1	no (0)
COC(=O)/C=C1/CCC(C(=O)OC)N1 (stereo not given)	IGROV-1	no (0)

Asked: Which outcome was entered for the compound Cc1nc(Nc2ccc(Cl)c(Cl)c2)sc1C(/C=C/c1ccc2c(c1)OCO2)=N/Nc1ccc([N+](=O)[O-])cc1[N+](=O)[O-] in this test?
Given back: no (0)

Asked: Which outcome was entered for the compound CC(=O)N/N=C1/CC[C@@]2(C)C(=CC[C@H]3C4CCC(C(C)CCCC(C)C)[C@@]4(C)CCC32)C1(C)C (stereo not given in full) in this test?
Given back: no (0)

Asked: Which outcome was entered for the compound CCOC(=O)c1c[nH]c(C(=O)OCC)c1-c1cccn1-c1ccccc1 in this test?
Given back: no (0)

Asked: Which outcome was entered for the compound c1ccc([P+](CCCCCCCC[P+](c2ccccc2)(c2ccccc2)c2ccccc2)(c2ccccc2)c2ccccc2)cc1 in this test?
Given back: no (0)

Asked: Which outcome was entered for the compound CCOC(=O)C(C(=O)OCC)=c1sc(=C(C(=O)OCC)C(=O)OCC)s1 in this test?
Given back: no (0)

Asked: Which outcome was entered for the compound COC(=O)C(Cc1c(C2Nc3ccccc3C2CC(NC(=O)CNC(C)=O)C(=O)OC)[nH]c2ccccc12)NC(=O)CNC(C)=O (stereo not given) in this test?
Given back: no (0)

Asked: Which outcome was entered for the compound CC(=O)Oc1ccccc1C(=O)Nc1ncc([N+](=O)[O-])s1 [NITAZOXANIDE] in this test?
Given back: no (0)

Asked: Which outcome was entered for the compound COC1=CC(=O)c2c(cc(COP(N)(=O)N(CCCl)CCCl)n2C)C1=O (stereo not given) in this test?
Given back: yes (1)

Asked: Which outcome was entered for the compound COCC1N=C(c2cc(OC)c(OC)c(OC)c2-c2cc3c(cc2C2OCCCO2)OCO3)O[C@H]1c1ccccc1 (stereo not given in full) in this test?
Given back: no (0)

Asked: Which outcome was entered for the compound CCOP(=O)(OCC)C1CC(O)CN1OC(=O)C(C)(C)C (stereo not given) in this test?
Given back: no (0)

Asked: Which outcome was entered for the compound CCCNC(=S)N/C=C1/C(=O)Oc2ccccc2C1=O in this test?
Given back: no (0)

Asked: Which outcome was entered for the compound C(=N\c1ccc(-c2nc3ccccc3s2)cc1)/c1cccs1 in this test?
Given back: no (0)

Asked: Which outcome was entered for the compound COc1c(Br)cc(CC(N)=O)c(O)c1Br in this test?
Given back: no (0)

Asked: Which outcome was entered for the compound NS(=O)(=O)c1ccc(NC(=S)N/C=C2\C(=O)Oc3ccccc3C2=O)cc1 in this test?
Given back: no (0)

Asked: Which outcome was entered for the compound O=C1/C(=C/c2ccccc2)CN(C(=O)Oc2ccc([N+](=O)[O-])cc2)C/C1=C\c1ccccc1 in this test?
Given back: no (0)

Asked: Which outcome was entered for the compound Cc1cc(Cc2c(F)c(F)c(Cc3cc(C)no3)c(F)c2F)on1 in this test?
Given back: no (0)

Asked: Which outcome was entered for the compound COc1ccc(/C(C#N)=C/c2ccc(OC)c(OC)c2)cc1 in this test?
Given back: no (0)

Asked: Which outcome was entered for the compound C[Si](C)(C)/C=C/CN1C(=O)CCC1=O in this test?
Given back: no (0)

Asked: Which outcome was entered for the compound Oc1c2c(c(O)c3ccccc13)C1(N=N2)c2ccccc2Oc2ccccc21 in this test?
Given back: no (0)

Asked: Which outcome was entered for the compound CC(=O)OCc1c(O)nc2c(c1O)-c1ccccc1CC2 in this test?
Given back: no (0)

Asked: Which outcome was entered for the compound Nc1nc(Cl)cc(Oc2ccc(Cl)cc2)n1 in this test?
Given back: no (0)
